As shown below, each of these compounds has a reported Selectivity HCT 116-WT/ HCT116 MTAP KO value.
- Tested on: HCT116 MTAP KO cells
- Test: Inhibitory activity against cell proliferation (CellTiter Glo, 6 days), HCT116 MTAP KO
- Assay type: cell-based
- Experimental Parameters: ratio of IC50 HCT116-WT / HCT116 MTAP KO
// no unit, no text: just the number

# count of solved cases: 4
| Compound | Target Of Assay | Selectivity HCT 116-WT/ HCT116 MTAP KO |
| --- | --- | --- |
| COC1CN(C(=O)c2cc3c(cc2C)nc(N)c2cnn(C)c23)N(c2cccc(F)n2)C1 (stereo not shown) | HCT116 MTAP KO cells | 23.37 |
| Cc1cc2cc(C(=O)N(Cc3ccc(-c4ccc(=O)n(C)c4)cn3)N(C)c3ncccn3)ccc2nc1N | HCT116 MTAP KO cells | 30.00 |
| Cc1cc2nc(N)c3cnn(C)c3c2cc1C(=O)N1C(C)CCN1c1ncccc1F (stereo not shown) | HCT116 MTAP KO cells | 35.48 |
| C=C1CN(C(=O)c2cc3c(cc2Cl)nc(N)c2cnn(C)c23)N(c2cccc(F)n2)C1 | HCT116 MTAP KO cells | 27.13 |

Ask: Fill in: Selectivity HCT 116-WT/ HCT116 MTAP KO of Cc1cc2cc(C(=O)N(Cc3ccc(C(F)(F)F)cn3)N(C)c3ncc(C(F)(F)F)cc3F)ccc2nc1N is ___
Reply: 10.19

Ask: Fill in: Selectivity HCT 116-WT/ HCT116 MTAP KO of Cc1cc2cc(C(=O)N(Cc3ccc(C(F)(F)F)cc3F)N(C)c3ncccn3)ccc2nc1N is ___
Reply: 22.13

Ask: Fill in: Selectivity HCT 116-WT/ HCT116 MTAP KO of Cc1cc2cc(C(=O)N(Cc3ccc(C(F)(F)F)cn3)Nc3ncccn3)ccc2nc1N is ___
Reply: 16.43

Ask: Fill in: Selectivity HCT 116-WT/ HCT116 MTAP KO of Cc1cc2cc(C(=O)N(Cc3ccc(-c4ccc(N5CCN(C)CC5)nc4)cn3)N(C)c3ncccn3)ccc2nc1N is ___
Reply: 44.67

Ask: Fill in: Selectivity HCT 116-WT/ HCT116 MTAP KO of Cn1ncc2c(N)nc3cc(Cl)c(C(=O)N4CC(F)(F)CN4c4ncccc4F)cc3c21 is ___
Reply: 13.60

Ask: Fill in: Selectivity HCT 116-WT/ HCT116 MTAP KO of CC1CN(C(=O)c2cc3c(cc2Cl)nc(N)c2cnn(C)c23)N(c2ncccc2F)C1 (stereo not shown) is ___
Reply: 41.49

Ask: Fill in: Selectivity HCT 116-WT/ HCT116 MTAP KO of CCN(c1ncccn1)N(Cc1ccc(C(F)(F)F)cn1)C(=O)c1ccc2nc(N)c(C)cc2c1 is ___
Reply: 14.55

Ask: Fill in: Selectivity HCT 116-WT/ HCT116 MTAP KO of Cc1cc2cc(C(=O)N(Cc3ccc(-c4ccc(N5CCCC5)nc4)cn3)N(C)c3ncccn3)ccc2nc1N is ___
Reply: 18.96

Ask: Fill in: Selectivity HCT 116-WT/ HCT116 MTAP KO of Cc1cc2cc(C(=O)N(Cc3cc4ccccc4cn3)N(C)c3ncccn3)ccc2nc1N is ___
Reply: 22.94

Ask: Fill in: Selectivity HCT 116-WT/ HCT116 MTAP KO of Cc1cc2nc(N)c3cnn(C)c3c2cc1C(=O)N1CC(C)CN1c1ccccc1Cl (stereo not shown) is ___
Reply: 12.40

Ask: Fill in: Selectivity HCT 116-WT/ HCT116 MTAP KO of Cc1cc2cc(C(=O)N(Cc3ccc(C(F)(F)F)cn3)N(C)c3ncc4ccccc4n3)ccc2nc1N is ___
Reply: 14.41

Ask: Fill in: Selectivity HCT 116-WT/ HCT116 MTAP KO of Cc1cc2cc(C(=O)N(Cc3ccc(C(F)(F)F)cn3)n3ccc4ccccc43)ccc2nc1N is ___
Reply: 18.22
